Biological target: T1, TNFR1 (Homo sapiens, UniProt P19438)
T1 chain: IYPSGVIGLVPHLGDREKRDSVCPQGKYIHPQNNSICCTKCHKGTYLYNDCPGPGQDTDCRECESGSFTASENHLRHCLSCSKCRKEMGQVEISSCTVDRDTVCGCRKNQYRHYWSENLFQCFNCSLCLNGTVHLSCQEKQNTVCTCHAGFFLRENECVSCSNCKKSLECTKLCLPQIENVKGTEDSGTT
Test: yeast display SC50
Class T: apparent Kd (screen) at least 0.6 nM. Class F: apparent Kd (screen) below 0.6 nM.

Lookup: Quick check: does E84N (designed binder) MTLQELLREEALRRAEAEAFRYALELLAEKFPEQKEYLLDLAEEIESQIRSLSGVDVEDVRKFLDKEWAWVKELLAEHPAELANVEAARAARLAELRAEVEAKVAA have apparent Kd (screen) greater than or equal to 0.6 nM?
Found: T

Lookup: Quick check: does R97W (designed binder) MTLQELLREEALRRAEAEAFRYALELLAEKFPEQKEYLLDLAEEIESQIRSLSGVDVEDVRKFLDKEWAWVKELLAEHPAELAEVEAARAARLAELWAEVEAKVAA have apparent Kd (screen) greater than or equal to 0.6 nM?
Found: F

Lookup: Quick check: does A91I (designed binder) MTLQELLREEALRRAEAEAFRYALELLAEKFPEQKEYLLDLAEEIESQIRSLSGVDVEDVRKFLDKEWAWVKELLAEHPAELAEVEAARAIRLAELRAEVEAKVAA have apparent Kd (screen) greater than or equal to 0.6 nM?
Found: T

Lookup: Quick check: does L93D (designed binder) MTLQELLREEALRRAEAEAFRYALELLAEKFPEQKEYLLDLAEEIESQIRSLSGVDVEDVRKFLDKEWAWVKELLAEHPAELAEVEAARAARDAELRAEVEAKVAA have apparent Kd (screen) greater than or equal to 0.6 nM?
Found: T

Lookup: Quick check: does R50C (designed binder) MTLQELLREEALRRAEAEAFRYALELLAEKFPEQKEYLLDLAEEIESQICSLSGVDVEDVRKFLDKEWAWVKELLAEHPAELAEVEAARAARLAELRAEVEAKVAA have apparent Kd (screen) greater than or equal to 0.6 nM?
Found: F

Lookup: Quick check: does G54K (designed binder) MTLQELLREEALRRAEAEAFRYALELLAEKFPEQKEYLLDLAEEIESQIRSLSKVDVEDVRKFLDKEWAWVKELLAEHPAELAEVEAARAARLAELRAEVEAKVAA have apparent Kd (screen) greater than or equal to 0.6 nM?
Found: T

Lookup: Quick check: does E73H (designed binder) MTLQELLREEALRRAEAEAFRYALELLAEKFPEQKEYLLDLAEEIESQIRSLSGVDVEDVRKFLDKEWAWVKHLLAEHPAELAEVEAARAARLAELRAEVEAKVAA have apparent Kd (screen) greater than or equal to 0.6 nM?
Found: F

Lookup: Quick check: does K66Q (designed binder) MTLQELLREEALRRAEAEAFRYALELLAEKFPEQKEYLLDLAEEIESQIRSLSGVDVEDVRKFLDQEWAWVKELLAEHPAELAEVEAARAARLAELRAEVEAKVAA have apparent Kd (screen) greater than or equal to 0.6 nM?
Found: T

Lookup: Quick check: does L74I (designed binder) MTLQELLREEALRRAEAEAFRYALELLAEKFPEQKEYLLDLAEEIESQIRSLSGVDVEDVRKFLDKEWAWVKEILAEHPAELAEVEAARAARLAELRAEVEAKVAA have apparent Kd (screen) greater than or equal to 0.6 nM?
Found: T
